Hello, the source for this data is PubChem BioAssay AID256, in case you need it.

- Test system: CD2F1 mice, L1210 leukemia ip, survival T/C
- ASSAY NAME: NCI In Vivo Anticancer Drug Screen. Data for tumor model L1210 Leukemia (intraperitoneal) in CD2F1 (CDF1) mice
- PARTICULARS: endpoint: mean survival time; dose: 100.0 mg/kg/injection; schedule: Q01DX001 (ip); vehicle: saline; higher = longer survival
Toxic doses and inconclusive results are not listed.

{"COMPOUND": "CCOC(=O)C1CCCNC1=O (configuration not stated)", "T/C": "101 % of control"}
{"COMPOUND": "c1cnc(N2CC2)nn1", "T/C": "105 % of control"}
{"COMPOUND": "C=CCOc1ccc(C=O)cc1", "T/C": "102 % of control"}
{"COMPOUND": "O=P(OCCCCl)(OCCCCl)C(Cl)Cl", "T/C": "102 % of control"}
{"COMPOUND": "O=C(O)c1ccc(C(=O)O)nc1", "T/C": "87 % of control"}
{"COMPOUND": "Cc1ccc(P(=S)(c2ccc(C)c3ccccc23)c2ccc(C)c3ccccc23)c2ccccc12", "T/C": "91 % of control"}
{"COMPOUND": "COc1ccc(-c2c(C(=O)O)cc(O)c3cc(OC)c(OC)cc23)cc1OC", "T/C": "97 % of control"}
